# Subject Of Test: Alpha-1A adrenergic receptor (Homo sapiens, UniProt P35348)
# Sequence (P35348 whole entry): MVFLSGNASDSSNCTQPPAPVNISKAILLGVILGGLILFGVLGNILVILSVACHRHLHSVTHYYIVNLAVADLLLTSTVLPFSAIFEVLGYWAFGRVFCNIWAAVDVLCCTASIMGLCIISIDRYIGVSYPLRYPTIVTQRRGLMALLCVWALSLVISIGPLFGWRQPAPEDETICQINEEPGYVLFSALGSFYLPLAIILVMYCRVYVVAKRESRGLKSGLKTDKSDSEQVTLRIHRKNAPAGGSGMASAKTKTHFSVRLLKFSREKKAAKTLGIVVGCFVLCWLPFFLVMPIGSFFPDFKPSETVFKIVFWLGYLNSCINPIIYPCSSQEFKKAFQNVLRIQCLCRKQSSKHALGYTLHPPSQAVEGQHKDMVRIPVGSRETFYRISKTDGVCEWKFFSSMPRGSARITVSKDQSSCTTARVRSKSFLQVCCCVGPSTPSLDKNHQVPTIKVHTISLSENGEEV
# Test Protocol: Displacement of [3H]prazosin from human alpha1A adrenergic receptor expressed in CHO cells
# Assay type: cell-based
Listed molecules paired with reported log10 Ki
Short version: log10 scale, Ki, nM.

Solved entries (count: 5):
{"Molecule": "CCOc1ccccc1OCCNCC1COC(c2ccccc2)(c2ccccc2)O1 (racemic)", "log10 Ki": 0.82}
{"Molecule": "c1ccc(-c2ccccc2OCCNCC2COC(c3ccccc3)(c3ccccc3)O2)cc1 (racemic)", "log10 Ki": 2.69}
{"Molecule": "COc1cccc(OCCNCC2COC(c3ccccc3)(c3ccccc3)O2)c1 (racemic)", "log10 Ki": 1.96}
{"Molecule": "Cc1ccccc1OCCNCC1COC(c2ccccc2)(c2ccccc2)O1 (racemic)", "log10 Ki": 2.07}
{"Molecule": "COc1cccc(OC)c1OCCNCC1COC(c2ccccc2)(c2ccccc2)O1 (racemic)", "log10 Ki": 2.00}

In the following, a different molecule is considered.
# molecule COc1cc(OC)cc(OCCNCC2COC(c3ccccc3)(c3ccccc3)O2)c1 (racemic) ; its log10 Ki = 2.48
